# target_or_system: His-RBD WT (Influenza A virus A/Brevig …, UniProt Q99AU3 1-85)
# Sequence (Q99AU3 1-85): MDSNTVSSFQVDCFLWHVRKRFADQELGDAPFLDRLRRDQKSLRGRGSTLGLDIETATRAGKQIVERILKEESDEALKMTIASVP
# assay_overview: EMSA (fEMSA); […], pH 8.0, 1 h at room temperature; […]
# measurement_parameters: protein: recombinant; tags: N-term 10xHis; chain copies: 2; label: 5'-FAM (FITC) on both strands; blunt
endpoint_name: Kd
# output: number + unit

Give the measured Kd for FAM-dsRNA 16 bp (dsRNA) RNA 1: CCAUCCUCUACAGGCG RNA 2: CGCCUGUAGAGGAUGG
55 nM
